Hi there, I'd appreciate the recorded growth inhibition for every entry that follows.
- Assay summary: NCI Yeast Anticancer Drug Screen. Data for the bub3 strain (AID 167)
- Condition parameters: S. cerevisiae bub3 mutant strain, at 50.0 µM, hits give high values
About 79,000 compounds went through this panel and 15% of them were active in at least one assay; those are over-represented in the sample as a whole.
Answers are plain numbers, in %.

>>> meas_value("CC1(C)N=C(N)N=C(N)N1c1cccc(Br)c1")
-0.95
>>> meas_value("COc1cccc(O)c1O")
9.95
>>> meas_value("O=[N+]([O-])c1ccc(/C=C/C=C/c2ccccc2)c(Cl)c1")
-4.85
>>> meas_value("O=C(Cc1nc2ccc([N+](=O)[O-])cc2nc1CC(=O)c1cccnc1)c1cccnc1")
-3.85
>>> meas_value("CC1SC(N)=NC1=O (stereo not drawn)")
-7.5
>>> meas_value("N#CCc1ccc([N+](=O)[O-])cc1")
15.2

Your task in this section: give growth inhibition for each listed record.
1. CCC(C)(O)c1ccc(C)cc1 (stereo not drawn)
2. OCc1ccc(-c2ccc(-c3ccc(CO)s3)o2)s1
3. CCOC(=O)C(C#N)Cc1ccccc1 (stereo not drawn)
4. CCOC(=O)/C(C#N)=C/c1cccc(C)c1
5. CN(C)C(=O)Oc1cccc([N+](C)(C)C)c1
6. COc1cc2c3c(n(C)c(=O)c2cc1OC)-c1cc2c(cc1C3=O)OCO2

*A*
19.6
25.3
-1.6
23.2
0.2
-3.6

*Q* May I ask what growth inhibition has been recorded for "Cc1cc2nc(CO)[nH]c2cc1C" ?
*A* -5.65

---

Kindly supply the reported growth inhibition values for the records listed here.
- Assay summary: NCI Yeast Anticancer Drug Screen. Data for the mlh1 rad18 strain (AID 175)
- Condition parameters: S. cerevisiae mlh1 rad18 strain growth inhibition; at 50.0 µM; hits give high values
- Description: Growth inhibition of yeast strains with defined genetic alterations is measured as a screen for potential anti-cancer activity. Selected strains with alterations in DNA damage repair or cell cycle control were exposed to compounds and growth inhibition was measured relative to vehicle treated controls. The strain used in this assay is mlh1 rad18
This is part of a sample that, as a whole, favours compounds with a hit. Of some 79,000 tested, about 15% had one in any assay.
Give bare numbers, in %.

>>> meas_value("CC1Cc2ccccc2O1 (configuration not stated)")
11
>>> meas_value("CCOC(=O)c1cc(/C=C/c2cccc(Cl)c2)on1")
47.4
>>> meas_value("CN(C)C(C)(C)CC(C)(C)C")
26.6
>>> meas_value("C/C(=C\\c1cc(Cl)ccc1OCC(=O)O)[N+](=O)[O-]")
56.2

Here are 3 compounds. What values of growth inhibition were reported for them?
1. CC1(O)OC(COc2ccc(Cl)cc2)COC1O (configuration not stated)
2. CC1CCCC(CC(N)=O)CC1 (configuration not stated)
3. COc1ccccc1NC(=O)c1cc2cc(Br)ccc2cc1O

*A*
1. 18.9
2. 4.2
3. 34.2

---

- Assay summary: NCI Yeast Anticancer Drug Screen. Data for the sgs1 mgt1 strain (AID 161);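 note: 0% = growth of cultures given vehicle only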
- Condition parameters: S. cerevisiae sgs1 mgt1 strain, at 50.0 µM, hits give high values
The panel holds about 79,000 compounds, 15% with a hit somewhere; the sample as a whole holds those more often. Activity calls are given as the source filed them. Rule as the data show it: active = growth inhibition above about 70%; inactive = the rest.
Quantity name: growth inhibition

A selection of reference data follows.
>>> meas_value("CNC(=S)NC(C)(C)C")
"-20.6% (inactive)"
>>> meas_value("CN(C)CCC(=O)c1ccc(O)cc1")
"3.25% (inactive)"

Dear colleague, could you please provide growth inhibition for the molecules listed below?
1. CCN=c1cc2sc3cc(NCC)c(C)cc3nc-2cc1C
2. O=[N+]([O-])c1cccc(N=Nc2ccc(O)cc2O)c1
3. CCCCNC1(C#N)CCN(Cc2ccccc2)CC1
4. NCCC(=O)c1ccc(Cl)cc1
5. CN(C)Cc1cc(C(C)(C)CC(C)(C)C)ccc1O
6. NC(=O)NC(=O)c1ccc(Cl)cc1

*A*
["-16.4% (inactive)", "65.5% (inactive)", "-5.9% (inactive)", "6.8% (inactive)", "6.3% (inactive)", "19.2% (inactive)"]

---

Task for the reader: assign each of the following compounds its reported growth inhibition.
- Assay summary: NCI Yeast Anticancer Drug Screen. Data for the sgs1 mgt1 strain (AID 161);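 note: 0% = growth of cultures given vehicle only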
- Condition parameters: S. cerevisiae sgs1 mgt1 strain, at 50.0 µM, hits give high values
About 79,000 compounds went through this panel and 15% of them were active in at least one assay; those are over-represented in the sample as a whole.
Answers are plain numbers, in %.

>>> meas_value("O=[N+]([O-])c1ccc(Cl)c(S(=O)(=O)O)c1")
21.2

Quick batch: growth inhibition for everything below.
1. CCN(CC)C(=O)/C=C(/C)c1ccccc1
2. Cn1cnc2nc(Cl)nc(Cl)c21
3. Nc1ccc(NC(=O)c2cccc(N)c2)cc1

*A*
1: -22.2; 2: 10.7; 3: 6.4

Parameters: items (list). Returns: growth inhibition for each item.
1. COc1ccc(Oc2c(I)cc(CC(NC(C)=O)C(=O)O)cc2I)cc1 (centres undefined)
2. C=CCCCCCCCCCOC(C)=O
3. NCCCN
4. CC(=O)c1ccc(N=C(C#N)C2=C(O)c3ccccc3C2=O)cc1
5. C/C(O)=C(\C=N\C(N)=S)C(=O)Nc1ccccc1

*A*
38.7
-20.4
-11.1
25.8
-23.9

// each compound listed below needs its growth inhibition
1. CC1CCC2C(C)(C)C3CC12CC1OC13C (centres undefined)
2. O=C(O)c1ccc(S(=O)(=O)O)cc1
3. COC1=CC(=O)c2nc(Cl)ccc2C1=O
4. Cc1cc(C)c(CC(=O)O)c(C)c1

*A*
1. 0.7
2. 0.45
3. 35.2
4. 16.9

---

- Assay summary: NCI Yeast Anticancer Drug Screen. Data for the bub3 strain (AID 167)
- Condition parameters: S. cerevisiae bub3 mutant strain, at 50.0 µM, hits give high values
- Method: Growth inhibition of yeast strains with defined genetic alterations is measured as a screen for potential anti-cancer activity. Selected strains with alterations in DNA damage repair or cell cycle control were exposed to compounds and growth inhibition was measured relative to vehicle treated controls. The strain used in this assay is bub3
The panel holds about 79,000 compounds, 15% with a hit somewhere; the sample as a whole holds those more often.
Quantity name: growth inhibition (%)
Numbers only, in %.

Please review the entries below; each comes with its answer.
>>> meas_value("COc1cc2c(cc1O)CC[C@@H]1C2CC[C@@]2(C)C1CC[C@@H]2O (stereo partly drawn)")
-13.8
>>> meas_value("COc1ncnc2c1cnn2C")
-3.85
>>> meas_value("COC(=O)c1ccccc1Br")
-3.75
>>> meas_value("Cc1cc(NC(=O)CSCC(=O)O)no1")
-7.8

Provide growth inhibition values for the following items, in order.
1. CC1CC(O)CC(C)(C)C1 (stereo not drawn)
2. CCOC(=O)C1OC1c1ccccc1 (stereo not drawn)
3. COc1ccccc1NC(=O)C1=C(C)NC(C)=C(C(=O)Nc2ccccc2OC)C1c1cccc([N+](=O)[O-])c1

*A*
1. 2.2
2. -3.9
3. 20.4

---

- Assay summary: NCI Yeast Anticancer Drug Screen. Data for the cln2 rad14 strain (AID 165);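 note: 0% = growth equal to vehicle treated cultures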
- Condition parameters: S. cerevisiae cln2 rad14 strain, at 50.0 µM, hits give high values
About 79,000 compounds went through this panel and 15% of them were active in at least one assay; those are over-represented in the sample as a whole.
Please go through the items and note down their growth inhibition.
Answers are plain numbers, in %.

>>> meas_value("O=C1OC(c2ccc(F)cc2)CC1CN1CCOCC1 (configuration not stated)")
27.3
>>> meas_value("O=[N+]([O-])c1ccc(-c2ncc(-c3ccc(Br)cc3)o2)cc1")
11.6
>>> meas_value("COC(=O)c1ccc(NC(=O)CCl)cc1")
49
>>> meas_value("Cc1cc(C(C)(C)C)cc(C)c1Br")
-15.3

Please report growth inhibition for every entry that follows.
1. COc1cc(C(=O)NC(=S)Nc2ccc3ccccc3c2)cc(OC)c1OC
2. CC1C(=O)c2ccccc2CC1C(=O)O (configuration not stated)
3. CCCCOC(=O)c1ccc(C(C)C)cc1
4. CCOC(=O)c1[nH]c(C)c(C(C)=O)c1C
5. Cc1cc(OCCO)cc(C)c1Cl
6. CCN1C(=O)/C(=C/C=C/N(C)c2ccccc2)SC1=S
7. CN(C)c1ccc(S(=O)(=O)O)cc1

*A*
1: -6.15; 2: -22.2; 3: -19.4; 4: -10.5; 5: 2.35; 6: 9.05; 7: 10

Hi, could you look up growth inhibition for each item in my list?
1. Nc1ccc(CC(=O)O)c(N)c1
2. O=[N+]([O-])c1ccc(CO)cc1
3. Cc1ccccc1C1N=C2Oc3ccccc3C=C2C(=O)N1 (configuration not stated)
4. CC1CCC2C(C)(C)C3CC12CC1OC13C (configuration not stated)
5. NCC(=O)CCC(=O)O
6. OCCN(CCO)C(=S)S
7. CC1=CC(C)(C)NC(=S)N1c1ccc(S(=O)(=O)O)c2cccc(S(=O)(=O)O)c12
8. CSC(=N\N=C\c1ccc(N(C)C)cc1)/N=C/N(C)C

*A*
-6.25
6.75
-9.55
4.95
-4.95
-1.8
-30.9
7.65
